# STUDY TARGET: Wild-type RET kinase (Homo sapiens)
# Sequence (P07949 29-1114): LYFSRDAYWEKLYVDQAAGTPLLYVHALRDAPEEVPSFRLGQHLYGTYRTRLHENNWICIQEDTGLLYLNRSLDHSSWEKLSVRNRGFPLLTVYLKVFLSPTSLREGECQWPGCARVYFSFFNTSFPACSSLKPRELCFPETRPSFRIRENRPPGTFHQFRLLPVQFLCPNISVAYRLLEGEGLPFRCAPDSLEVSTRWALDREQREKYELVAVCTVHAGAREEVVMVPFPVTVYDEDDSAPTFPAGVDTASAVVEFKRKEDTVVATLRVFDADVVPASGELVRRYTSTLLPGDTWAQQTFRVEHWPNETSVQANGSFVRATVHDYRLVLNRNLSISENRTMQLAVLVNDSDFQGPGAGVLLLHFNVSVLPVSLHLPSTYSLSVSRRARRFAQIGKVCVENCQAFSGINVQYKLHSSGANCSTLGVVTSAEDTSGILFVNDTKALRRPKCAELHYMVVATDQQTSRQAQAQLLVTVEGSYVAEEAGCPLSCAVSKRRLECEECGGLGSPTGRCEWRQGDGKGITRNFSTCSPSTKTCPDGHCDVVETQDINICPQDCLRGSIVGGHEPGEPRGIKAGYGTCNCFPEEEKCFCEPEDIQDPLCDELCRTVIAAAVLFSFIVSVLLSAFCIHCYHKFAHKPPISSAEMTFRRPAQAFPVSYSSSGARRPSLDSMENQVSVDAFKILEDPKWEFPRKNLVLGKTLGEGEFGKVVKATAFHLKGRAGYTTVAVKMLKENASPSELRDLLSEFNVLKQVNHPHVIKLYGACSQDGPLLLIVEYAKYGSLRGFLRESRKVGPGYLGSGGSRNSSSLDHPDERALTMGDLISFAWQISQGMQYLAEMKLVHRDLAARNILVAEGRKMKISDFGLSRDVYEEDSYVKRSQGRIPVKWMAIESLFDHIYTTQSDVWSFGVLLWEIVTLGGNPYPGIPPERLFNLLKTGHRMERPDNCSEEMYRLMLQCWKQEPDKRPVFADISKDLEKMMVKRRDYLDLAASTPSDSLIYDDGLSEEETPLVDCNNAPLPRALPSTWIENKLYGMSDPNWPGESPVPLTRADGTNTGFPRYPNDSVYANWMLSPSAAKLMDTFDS
# MEASUREMENT NOTES: HTRF method for testing the inhibitory activity of compounds against RET
# Assay type: biochemical
Collected IC50 values appear next to each entry.
MEASURE: IC50 (µM)

INSERT INTO results (test_smiles, study_target, measure, assay_value) VALUES
  ('COc1ccc(CN2C3CC2CN(c2cnc(-c4cc(OC(=O)N5CCOCC5)cn5ncc(C#N)c45)cn2)C3)cn1', 'Wild-type RET kinase (Homo sapiens)', 'IC50', 0.0157),
  ('COc1ccc(CN2C3CC2CN(c2cnc(-c4cc(OC(=O)N5CCN(C)CC5)cn5ncc(C#N)c45)cn2)C3)cn1', 'Wild-type RET kinase (Homo sapiens)', 'IC50', 0.0127),
  ('COc1ccc(CN2C3CC2CN(c2cnc(-c4cc(OC(=O)NC(C)C)cn5ncc(C#N)c45)cn2)C3)cn1', 'Wild-type RET kinase (Homo sapiens)', 'IC50', 0.0062),
  ('CCNC(=O)Oc1cc(-c2cnc(N3CC4CC(C3)N4Cc3ccc(OC)nc3)cn2)c2c(C#N)cnn2c1', 'Wild-type RET kinase (Homo sapiens)', 'IC50', 0.0092);
